[
  {
    "COMPOUND": "O=C(O)c1ccc(S(=O)(=O)N2CCc3ccccc3C2)cc1",
    "melting point": "272 to 274 °C"
  },
  {
    "COMPOUND": "Cc1ccc2c(c1)C(=O)CCC2",
    "melting point": "28 to 30 °C"
  },
  {
    "COMPOUND": "O=C(O)c1cc2cc(Br)ccc2[nH]1",
    "melting point": "283 to 285 °C"
  },
  {
    "COMPOUND": "O=C(O)c1ccc(S(=O)(=O)C(F)(F)F)cc1",
    "melting point": "244 to 246 °C"
  },
  {
    "COMPOUND": "NC(=O)c1ccc(C=O)cc1",
    "melting point": "100 to 102 °C"
  },
  {
    "COMPOUND": "O=C1Cc2cc3c(cc2CCN1)OCCO3",
    "melting point": "226 to 228 °C"
  },
  {
    "COMPOUND": "NC(=O)CCN1C(=O)NC2(CCCC2)C1=O",
    "melting point": "150 to 152 °C"
  },
  {
    "COMPOUND": "NS(=O)(=O)c1ccc(CNCC(F)(F)F)cc1",
    "melting point": "129 to 131 °C"
  },
  {
    "COMPOUND": "NC(=S)c1ncc(N)s1",
    "melting point": "191 to 193 °C"
  },
  {
    "COMPOUND": "Cc1cc(C(=O)CCl)c(C)n1CCC(C)C",
    "melting point": "55 to 57 °C"
  },
  {
    "COMPOUND": "COc1cc(C(=O)O)ccc1OC1CCCC1",
    "melting point": "153 to 155 °C"
  },
  {
    "COMPOUND": "CN(C)CCNC(=O)Cc1ccc(N)cc1",
    "melting point": "145 to 147 °C"
  },
  {
    "COMPOUND": "Cc1ccc(-n2cc(S(=O)(=O)Cl)cn2)cc1",
    "melting point": "92 to 94 °C"
  },
  {
    "COMPOUND": "COC(=O)c1ncon1",
    "melting point": "34 to 36 °C"
  },
  {
    "COMPOUND": "CC(C)(O)COc1ccc(N)cc1",
    "melting point": "55 to 57 °C"
  },
  {
    "COMPOUND": "C#Cc1nc2ccccc2s1",
    "melting point": "39 to 41 °C"
  },
  {
    "COMPOUND": "NNC(=O)CC(F)(F)F",
    "melting point": "90 to 92 °C"
  },
  {
    "COMPOUND": "NC(=O)c1cc(C(F)(F)F)ccc1N1CCCC1",
    "melting point": "207 to 209 °C"
  },
  {
    "COMPOUND": "O=S1(=O)CCC(Cc2nc3ccccc3[nH]2)C1 (centres undefined)",
    "melting point": "156 to 158 °C"
  },
  {
    "COMPOUND": "CCOc1ccc([N+](=O)[O-])cc1C=O",
    "melting point": "66 to 68 °C"
  },
  {
    "COMPOUND": "Nc1c(I)cccc1C(=O)O",
    "melting point": "172 to 174 °C"
  },
  {
    "COMPOUND": "CNC(=O)c1cccc(CCN)c1",
    "melting point": "110 to 112 °C"
  },
  {
    "COMPOUND": "O=C(O)CSc1nncn1C1CC1",
    "melting point": "203 to 205 °C"
  },
  {
    "COMPOUND": "CC(C)Cn1[nH]c(-c2ccccc2)cc1=N",
    "melting point": "99 to 101 °C"
  },
  {
    "COMPOUND": "COc1ccc2ncc(=O)[nH]c2c1",
    "melting point": "179 to 181 °C"
  },
  {
    "COMPOUND": "C#CCN1C(=O)COc2ccc(Br)cc21",
    "melting point": "111 to 113 °C"
  },
  {
    "COMPOUND": "O=C1C=CC(=O)N1c1ccc2ccccc2c1",
    "melting point": "120 to 124 °C"
  },
  {
    "COMPOUND": "CC(C)(C)OC(=O)N1CCN2C(=O)C(=O)NCC2C1 (centres undefined)",
    "melting point": "222 to 224 °C"
  },
  {
    "COMPOUND": "Cc1cc(NN)nc(-c2ccccn2)n1",
    "melting point": "175 to 177 °C"
  }
]

Data origin: a melting point compilation (Tetko et al.)
